- Test system: H358 (non-small cell lung cancer cell line)
- Assay Text: KRAS Cell Titer Glo (CTG) cell proliferation assay, H358
- Format: cell-based
- Stated Conditions: Homo sapiens, NCI-H358, 168 h; H358 cells, 7-day CTG, geomean IC50
Measurement Name: log10 of IC50 (log10 of the value in nM)

{"Compound": "C=C1CN2CCC[C@@]2(COc2nc3c4c(nc(-c5c(CC)c(Cl)cc6[nH]ncc56)c(F)c4n2)OC[C@@H]2COCCCN32)C1", "log10 of IC50": 1.76}
{"Compound": "F/C=C1\\CN2CCC[C@@]2(COc2nc3c4c(nc(-c5c(C6CC6)c(Cl)cc6[nH]ncc56)c(F)c4n2)OC[C@@H]2COCCCN32)C1", "log10 of IC50": 1.34}
{"Compound": "C=C1CN2CCC[C@@]2(COc2nc3c4c(nc(-c5c([C@@H]6C[C@H]6C)c(Cl)cc6[nH]ncc56)c(F)c4n2)OC[C@@H]2COCCCN32)C1 (single isomer, unassigned)", "log10 of IC50": 1.43}
{"Compound": "C=C1CN2C[C@H](O)C[C@@]2(COc2nc3c4c(nc(-c5c(C6CC6)c(Cl)cc6[nH]ncc56)c(F)c4n2)OC[C@@H]2COCCCN32)C1", "log10 of IC50": 1.61}
{"Compound": "C=C1CN2CCC[C@@]2(COc2nc3c4c(nc(-c5c6c(cc7[nH]ncc57)CCC[C@H]6OC)c(F)c4n2)OC[C@@H]2COCCCN32)C1 (single isomer, unassigned)", "log10 of IC50": 2.24}
{"Compound": "Fc1c(-c2c(C3CC3)c(Cl)cc3[nH]ncc23)nc2c3c(nc(OC[C@@]45CCCN4CC4(CC4)C5)nc13)N1CCCOC[C@H]1CO2", "log10 of IC50": 2.48}
{"Compound": "COC/C=C1\\CN2CCC[C@@]2(COc2nc3c4c(nc(-c5c6c(cc7[nH]ncc57)CCC[C@H]6C)c(F)c4n2)OC[C@@H]2COCCCN32)C1", "log10 of IC50": 0.95}
{"Compound": "F/C=C1/CN2CCC[C@@]2(COc2nc3c4c(nc(-c5c(C6CC6)c(Cl)cc6[nH]ncc56)c(F)c4n2)OC[C@@H]2COCCCN32)C1", "log10 of IC50": 1.48}
{"Compound": "C/C=C1\\CN2CCC[C@@]2(COc2nc3c4c(nc(-c5c(C6CC6)c(Cl)cc6[nH]ncc56)c(F)c4n2)OC[C@@H]2COCCCN32)C1", "log10 of IC50": 1.23}
{"Compound": "C=C1CN2CCC[C@@]2(COc2nc3c4c(nc(-c5c(C(F)(F)F)ccc6[nH]ncc56)c(F)c4n2)OC[C@@H]2COCCCN32)C1", "log10 of IC50": 2.32}
{"Compound": "C[C@@H]1CCCc2cc3[nH]ncc3c(-c3nc4c5c(nc(OC[C@@]67CCCN6CC(=C6COC6)C7)nc5c3F)N3CCCOC[C@H]3CO4)c21", "log10 of IC50": 1.15}
